assay.target: Pan-species-specific antigen Plasmodium Lactate DeHydrogenase (Pan-PLDH) protein
protocol: indirect ELISA at four coating concentrations, KD calculated from half-maximal OD
metric: pKd
Bear in mind: pKd is minus log10 of a mol/L concentration; give just that figure.

Known results for binders:
INSERT INTO results (binder, endpoint_result) VALUES
  ('Mutation 1-10 (antibody, mouse IgG2b, kappa, V domains shown) VH: QVQLQQPGAELVRPGASVKLSCKASGTSFTNYWMNWVKQRPGQGLEWIGMIHPSESETRLNQKFKDKATLTVDKSSSTAYMQLSSLTAEDSAVYYCARSGEFYTYYFDYWGQGTTLTVSS VL: DIQLTQSPASLSASVGETVTITCRGTGNLHNYLAWYQQKQGKSPQLLVYNARTVADGVPSRFSGSGSGTQYSLKINSLQPEDFGSYYCQYFWSTYTFGGGTKLEIKR', 9.28),
  ('Mutation 1-39 (antibody, mouse IgG2b, kappa, V domains shown) VH: QVQLQQPGAELVRPGASVKLSCKASGSSFTNYWMNWVKQRPGQGLEWIGMIHPSESETRINQKFKDKATLTVDKSSSTAYMQLSSLTAEDSAVYYCAKSGEFYTSYFDYWGQGTTLTVSS VL: DIQLTQSPASLSASVGETVTITCRGTGNVHNYLAWYQQKQGKSPQLLVYNARTVADGVPSRFSGSGSGTQYSLKINSLQPEDFGSYYCQYFWSTYTFGGGTKLEIKR', 9.26);

Query: Identify measured pKd associated with Mutation 1-46 (antibody, mouse IgG2b, kappa, V domains shown) VH: QVQLQQPGAELVRPGASVKLSCKASGTSFTNYWMNWVKQRPGQGLEWIGMIHPSESETRLNQKFKDKATLTVDKSSSTAYMQLSSLTAEDSAVYYCARSGEFYTTYFDYWGQGTTLTVSS VL: DIQLTQSPASLSASVGETVTITCRGTGNLHNYLAWYQQKQGKSPQLLVYNARTVADGVPSRFSGSGSGTQYSLKINSLQPEDFGSYYCQYFWSTYTFGGGTKLEIKR
Reply: 9.48

Origin of values: patent US20210395394A1
